Hello, the source for this data is patent US9346761B2, in case you need it.

biological target: Full-length human PRMT6 (Homo sapiens); construct: Flag-PRMT6-His was eluted with 200 ug/ml FLAG peptide in the same buffer; made in house; host or cells: HEK 293F cells (BacMam virus, pFastBacMam); test: PRMT6 biochemical assay (3H-SAM Flashplate, peptide substrate)
Sequence (Q96LA8 with tags, fused parts or gaps): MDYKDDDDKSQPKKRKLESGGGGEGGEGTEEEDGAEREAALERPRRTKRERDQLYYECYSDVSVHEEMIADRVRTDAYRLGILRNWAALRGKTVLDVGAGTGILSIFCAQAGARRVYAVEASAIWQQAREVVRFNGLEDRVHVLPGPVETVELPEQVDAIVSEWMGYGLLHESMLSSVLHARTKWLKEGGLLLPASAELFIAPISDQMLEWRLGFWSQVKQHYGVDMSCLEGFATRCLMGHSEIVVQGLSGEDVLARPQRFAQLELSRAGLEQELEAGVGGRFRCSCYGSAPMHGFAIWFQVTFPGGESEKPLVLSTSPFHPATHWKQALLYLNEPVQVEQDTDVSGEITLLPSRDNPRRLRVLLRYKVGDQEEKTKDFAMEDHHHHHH
Structures can show the parent of a compound that is named as a salt.
measurement.name: IC50

## Input # lookup: IC50 of CN(CCN)Cc1c[nH]nc1-c1ccc(OCCCN2CCOCC2)cc1
## Output < 100 nM

## Input Can you handle CC(C)Oc1ccc(-c2n[nH]cc2CN(C)CCN)cc1Cl next?
## Output < 100 nM

## Input Queued: CNCCN(C)Cc1c[nH]nc1-c1ccc(OCCCOC)cc1
## Output < 100 nM

## Input And the next one, COc1cc(Cl)cc(-c2n[nH]cc2CN(C)CCN)c1 ?
## Output < 100 nM

## Input Same thing, different compound: CC(C)Oc1ccc(-c2c[nH]nc2CN(C)CCN)cc1F
## Output < 100 nM

## Input One more compound: CNCCN(C)Cc1c[nH]nc1-c1ccc(C)cc1C
## Output < 100 nM

## Input Next up: CNCCN(C)Cc1c[nH]nc1-c1ccc(OC)cc1OC
## Output < 100 nM

## Input Now the same for CNCCN(C)Cc1n[nH]c(C)c1-c1ccc(OC(C)C)cc1
## Output < 100 nM

## Input Then CN(CCN)Cc1c[nH]nc1-c1ccc(OCCCO)cc1 ?
## Output < 100 nM

## Input Now give it for CC(C)c1ccc(-c2c[nH]nc2CN(C)CCN)cc1 too.
## Output 101 to 1000 nM

## Input Further, for CNCCN(C)Cc1cn(Cc2cccnc2)nc1-c1ccc(OC(C)C)cc1 ?
## Output 101 to 1000 nM

## Input Also CCNC(=O)c1cccc(-c2n[nH]cc2CN(C)CCN)c1 , if possible.
## Output < 100 nM

## Input Another: CCNC(=O)c1cccc(-c2n[nH]cc2CN(C)CCNC)c1
## Output < 100 nM

## Input How about CNCCN(C)Cc1cn(C2CC2)nc1-c1ccc(F)cc1 ?
## Output 101 to 1000 nM

## Input Again, but for CN(CCN)Cc1c[nH]nc1-c1ccc(Oc2ccccc2)c(F)c1
## Output < 100 nM

## Input // repeat for CNCCN(C)Cc1n[nH]cc1-c1ccc(OC(C)C)c(Cl)c1 and report
## Output < 100 nM

## Input Next entry: CNCCN(C)Cc1c[nH]nc1-c1ccc(Oc2ccccc2F)cc1
## Output < 100 nM

## Input Also, CN(CCN)Cc1n[nH]cc1-c1ccc(C#N)cc1 please.
## Output < 100 nM

## Input Another compound: CNCCN(C)Cc1c[nH]nc1-c1ccc(Oc2cccc(F)c2)cc1
## Output < 100 nM

## Input Another: CN(CCN(C)C1CC1)Cc1c[nH]nc1-c1ccc(C#N)cc1
## Output 1010 to 3000 nM

## Input Request: CNCCN(C)Cc1cn(CCOC)nc1-c1ccc(OC(C)C)cc1 [Compound 253, hydrochloride]
## Output 101 to 1000 nM

## Input Moving on to CN(CCN)Cc1cn[nH]c1-c1ccc(F)cc1
## Output < 100 nM

## Input Another: CNCCN(C)Cc1c[nH]nc1-c1ccc(F)c(F)c1
## Output < 100 nM

## Input Cc1ccc(F)cc1-c1n[nH]cc1CN(C)CCN , same question.
## Output < 100 nM

## Input And CNCCN(C)Cc1c[nH]nc1-c1c(OC)cccc1OC ?
## Output 1010 to 3000 nM

## Input Another: CN(CCN)Cc1c[nH]nc1-c1ccc(C(F)(F)F)cc1
## Output < 100 nM

## Input Same for CC(C)Oc1ccc(-c2nn(C)cc2CN(C)CCN)cc1
## Output < 100 nM

## Input Continue with CN(CCN)Cc1c[nH]nc1-c1ccc(OC(F)(F)F)cc1
## Output < 100 nM

## Input // next record CNCCN(C)Cc1n[nH]cc1-c1ccc(Oc2ccccc2)c(C(=O)NC)c1
## Output < 100 nM

## Input And for CCn1ncc(CN(C)CCNC)c1-c1ccc(F)cc1 ?
## Output < 100 nM

## Input Quick one: CNCCN(C)Cc1c[nH]nc1-c1cccc2ccccc12
## Output < 100 nM

## Input Similarly, CC(C)Cc1ccc(-c2c[nH]nc2CN(C)CCN)cc1 ?
## Output < 100 nM

## Input Also, CNCCN(C)Cc1c[nH]nc1-c1cccc(O)c1 please.
## Output < 100 nM

## Input Please do the same for CNCCN(C)Cc1n[nH]cc1-c1cc(C(C)C)cc(C(C)C)c1 as well.
## Output 1010 to 3000 nM

## Input Entry C=CCn1cc(CN(C)CCNC)c(-c2ccc(OC(C)C)cc2)n1 please
## Output 101 to 1000 nM

## Input Param item: CNCCN(C)Cc1cnn(C2CCOC2)c1-c1ccc(OC(C)C)cc1 (stereo not shown)
## Output < 100 nM

## Input Same lookup for Cc1ccccc1-c1n[nH]cc1CN(C)CCN , please.
## Output < 100 nM

## Input Now give it for CNCCN(C)Cc1c[nH]nc1-c1cc(C(C)C)cc(C(C)C)c1 too.
## Output 101 to 1000 nM

## Input Similarly, CN(CCN)Cc1nn(C)cc1-c1ccc(C#N)cc1 ?
## Output < 100 nM

## Input Can you handle CNCCN(C)Cc1cnn(CC2CCOCC2)c1-c1ccc(F)cc1 next?
## Output 101 to 1000 nM
